Cited source: paper PMC6155662

Hi there, I'd appreciate the recorded CC50 at 24 h for every entry that follows.
experiment: Cytotoxicity assay (Alamar Blue) on macrophages; type: cell-based, murine; settings: mouse, J774A.1 macrophages, mean and SD of triplicate
Kindly answer with a numeric value in µM, unit omitted.

For the compound CCCOC(=O)c1ccc2c(c1)[n+]([O-])c(C(=O)c1cccs1)c(C(F)(F)F)[n+]2[O-] [Compound T-089] , what CC50 at 24 h is on record?
7.71

And the next one, CCCOC(=O)c1ccc2c(c1)[n+]([O-])c(C(=O)OC)c(C)[n+]2[O-] [Compound T-088] ?
143

And what about the compound CCCOC(=O)c1ccc2c(c1)[n+]([O-])c(C(=O)OCC)c(C)[n+]2[O-] [Compound T-090] ?
146

// query: O=C(Cn1ccnc1[N+](=O)[O-])NCc1ccccc1 [Bnz, benznidazole, reference compound]
352

====

molecular target: recombinant T. cruzi TR (Trypanosoma cruzi, UniProt P28593); assay: TR enzyme inhibition (NADPH consumption at 340 nm); details: inhibitor 5-60 μM; read-out: IC50 against TcTR
Sequence (P28593 whole entry): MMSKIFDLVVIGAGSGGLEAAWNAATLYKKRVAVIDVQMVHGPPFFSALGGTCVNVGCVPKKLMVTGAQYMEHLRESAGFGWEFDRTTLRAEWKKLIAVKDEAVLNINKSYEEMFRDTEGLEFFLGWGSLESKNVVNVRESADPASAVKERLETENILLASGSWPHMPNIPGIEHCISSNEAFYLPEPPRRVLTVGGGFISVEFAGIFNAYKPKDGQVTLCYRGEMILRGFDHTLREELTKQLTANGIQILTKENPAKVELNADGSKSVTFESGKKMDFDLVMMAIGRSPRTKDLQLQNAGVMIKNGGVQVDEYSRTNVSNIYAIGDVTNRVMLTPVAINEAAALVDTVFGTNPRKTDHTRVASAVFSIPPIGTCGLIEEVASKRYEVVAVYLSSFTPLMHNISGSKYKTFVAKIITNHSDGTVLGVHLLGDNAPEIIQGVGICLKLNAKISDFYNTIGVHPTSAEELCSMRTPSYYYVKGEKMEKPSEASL
ASSAY ENDPOINT: pIC50
pIC50 is defined as minus the log10 of a concentration measured in mol/L.

Need pIC50, item CC(C)OC(=O)c1ccc2c(c1)[n+]([O-])c(C(=O)C(C)C)c(C(F)(F)F)[n+]2[O-]
4.30

====

test system: T. cruzi INC-5 epimastigotes; experiment: Viability (MTT) assay on T. cruzi epimastigotes; format: cell-based, Trypanosoma cruzi; settings: Trypanosoma cruzi, 24 h, mean and SD of triplicate
Give pIC50 for every item shown.
To interpret pIC50, take it as minus log10 of a concentration measured in moles per litre.

Item CCCOC(=O)c1ccc2c(c1)[n+]([O-])c(C(=O)c1cccs1)c(C(F)(F)F)[n+]2[O-] [Compound T-089] has what recorded pIC50?
5.12

Cool, now CCOC(=O)Cc1c(C(=O)OCC)[n+]([O-])c2cc(C(=O)OC(C)C)ccc2[n+]1[O-] [Compound T-067]
4.92

And for CC(C)OC(=O)c1ccc2c(c1)[n+]([O-])c(C(=O)C(C)(C)C)c(C(C)(C)C)[n+]2[O-] [Compound T-107] ?
4.04

====

Field: CC50 at 24 h. Provide a value for each of the compounds that follow.
test: Cytotoxicity assay (Alamar Blue) on macrophages; assay type: cell-based, murine; conditions: mouse, J774A.1 macrophages, mean and SD of triplicate

What value of measured CC50 at 24 h is listed for CCCOC(=O)c1ccc2c(c1)[n+]([O-])c(C(=O)Nc1ccccc1)c(C)[n+]2[O-] ?
> 261 µM

Proceed to CCCOC(=O)c1ccc2c(c1)[n+]([O-])c(C(C)=O)c(C)[n+]2[O-]
> 327 µM

Follow-up entry: CCOC(=O)c1c(C)[n+]([O-])c2ccc(C(=O)OC(C)C)cc2[n+]1[O-]
> 296 µM

What do we get for Cc1c(C(=O)OC(C)(C)C)[n+]([O-])c2cc(C(=O)OC(C)C)ccc2[n+]1[O-] ?
> 273 µM
